Experiment: Plasma clearance in mouse at 10 mg/kg, po
Type: ADME, organism-based
Parameters: dose 10 mg/kg, route oral
property_name: CL/F

Cc1ncsc1C(=O)N(Cc1cc(=O)[nH]c2c(F)cccc12)c1cccc(Cl)c1: > 100 mL/min/kg
Cn1cncc1C(=O)N(Cc1cc(=O)[nH]c2c(F)c(F)ccc12)c1cccc(Cl)c1: > 100 mL/min/kg

====

Target: Nitric oxide synthase 1 (Homo sapiens, UniProt P29475)
Sequence (P29475 whole entry): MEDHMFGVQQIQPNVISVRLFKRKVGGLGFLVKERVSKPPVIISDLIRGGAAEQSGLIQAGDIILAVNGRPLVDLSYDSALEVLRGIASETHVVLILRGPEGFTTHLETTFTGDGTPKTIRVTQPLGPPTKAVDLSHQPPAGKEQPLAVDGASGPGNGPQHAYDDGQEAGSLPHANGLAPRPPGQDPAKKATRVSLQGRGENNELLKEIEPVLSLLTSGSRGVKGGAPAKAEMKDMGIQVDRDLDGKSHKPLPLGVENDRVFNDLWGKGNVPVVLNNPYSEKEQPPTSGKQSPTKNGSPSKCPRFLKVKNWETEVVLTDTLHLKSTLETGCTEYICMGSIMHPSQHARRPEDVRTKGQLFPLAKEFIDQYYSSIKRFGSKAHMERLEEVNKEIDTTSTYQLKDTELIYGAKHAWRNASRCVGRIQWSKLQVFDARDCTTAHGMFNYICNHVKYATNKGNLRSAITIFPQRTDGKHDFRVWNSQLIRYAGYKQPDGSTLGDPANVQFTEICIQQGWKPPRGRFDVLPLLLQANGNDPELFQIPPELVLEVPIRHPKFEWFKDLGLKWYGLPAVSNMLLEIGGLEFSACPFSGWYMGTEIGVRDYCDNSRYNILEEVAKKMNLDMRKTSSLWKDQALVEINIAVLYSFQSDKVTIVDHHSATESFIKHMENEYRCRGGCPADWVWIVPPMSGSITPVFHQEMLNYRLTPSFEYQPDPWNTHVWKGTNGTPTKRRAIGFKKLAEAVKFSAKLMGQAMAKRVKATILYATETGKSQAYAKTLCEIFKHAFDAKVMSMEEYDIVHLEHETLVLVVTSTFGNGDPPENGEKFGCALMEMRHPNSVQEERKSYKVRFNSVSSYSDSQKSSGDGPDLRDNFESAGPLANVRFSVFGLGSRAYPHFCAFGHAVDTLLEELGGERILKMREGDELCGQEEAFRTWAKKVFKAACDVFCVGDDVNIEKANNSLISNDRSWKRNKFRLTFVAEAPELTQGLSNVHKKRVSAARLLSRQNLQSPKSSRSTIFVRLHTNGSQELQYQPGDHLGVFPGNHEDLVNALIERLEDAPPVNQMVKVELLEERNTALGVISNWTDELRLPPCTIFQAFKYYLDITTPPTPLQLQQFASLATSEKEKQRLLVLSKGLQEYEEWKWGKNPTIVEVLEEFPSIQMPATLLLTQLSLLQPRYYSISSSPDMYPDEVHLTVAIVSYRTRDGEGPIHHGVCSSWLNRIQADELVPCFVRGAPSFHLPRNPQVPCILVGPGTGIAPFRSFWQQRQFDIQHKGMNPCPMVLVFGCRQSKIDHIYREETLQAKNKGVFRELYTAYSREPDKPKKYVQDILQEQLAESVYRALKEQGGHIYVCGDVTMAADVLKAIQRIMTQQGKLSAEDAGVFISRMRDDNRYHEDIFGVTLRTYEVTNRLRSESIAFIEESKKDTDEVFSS
Test: Inhibition of human nNOS expressed in HEK293 cells assessed as NO production by transient transfection assay
Threshold 3 µM. EC50 below it: T. EC50 at it or above: F.

Cc1ncsc1C(=O)N(Cc1c(F)c(=O)[nH]c2c(F)cccc12)c1cccc(Cl)c1: F
Cc1noc(C)c1C(=O)N(Cc1cc(=O)[nH]c2c(F)c(F)ccc12)c1cccc(Cl)c1: T
CC(C)C(=O)N(Cc1cc(=O)[nH]c2c(F)cccc12)c1cccc(Cl)c1: T
Cc1ncsc1C(=O)N(Cc1cc(=O)[nH]c2c(F)c(F)ccc12)c1cccc(Cl)c1: T
O=C(c1ccco1)N(Cc1cc(=O)[nH]c2c(F)cccc12)c1ccccc1: F
Cc1cnccc1C(=O)N(Cc1cc(=O)[nH]c2c(F)cccc12)c1cccc(Cl)c1: T
Cc1ncsc1C(=O)N(Cc1cc(=O)[nH]c2ccccc12)c1ccccc1: F
Cc1ncsc1C(=O)N(Cc1c[n+]([O-])cc2c(F)c(F)ccc12)c1cccc(Cl)c1: F
O=C(C1CCCC1)N(Cc1cc(=O)[nH]c2c(F)cccc12)c1cccc(Cl)c1: F
O=C(c1ccco1)N(Cc1cc(=O)[nH]c2ccccc12)c1ccccc1: F

====

Listed compounds paired with reported EC50
Biological target: UniProtKB P35228
Sequence (P35228 whole entry): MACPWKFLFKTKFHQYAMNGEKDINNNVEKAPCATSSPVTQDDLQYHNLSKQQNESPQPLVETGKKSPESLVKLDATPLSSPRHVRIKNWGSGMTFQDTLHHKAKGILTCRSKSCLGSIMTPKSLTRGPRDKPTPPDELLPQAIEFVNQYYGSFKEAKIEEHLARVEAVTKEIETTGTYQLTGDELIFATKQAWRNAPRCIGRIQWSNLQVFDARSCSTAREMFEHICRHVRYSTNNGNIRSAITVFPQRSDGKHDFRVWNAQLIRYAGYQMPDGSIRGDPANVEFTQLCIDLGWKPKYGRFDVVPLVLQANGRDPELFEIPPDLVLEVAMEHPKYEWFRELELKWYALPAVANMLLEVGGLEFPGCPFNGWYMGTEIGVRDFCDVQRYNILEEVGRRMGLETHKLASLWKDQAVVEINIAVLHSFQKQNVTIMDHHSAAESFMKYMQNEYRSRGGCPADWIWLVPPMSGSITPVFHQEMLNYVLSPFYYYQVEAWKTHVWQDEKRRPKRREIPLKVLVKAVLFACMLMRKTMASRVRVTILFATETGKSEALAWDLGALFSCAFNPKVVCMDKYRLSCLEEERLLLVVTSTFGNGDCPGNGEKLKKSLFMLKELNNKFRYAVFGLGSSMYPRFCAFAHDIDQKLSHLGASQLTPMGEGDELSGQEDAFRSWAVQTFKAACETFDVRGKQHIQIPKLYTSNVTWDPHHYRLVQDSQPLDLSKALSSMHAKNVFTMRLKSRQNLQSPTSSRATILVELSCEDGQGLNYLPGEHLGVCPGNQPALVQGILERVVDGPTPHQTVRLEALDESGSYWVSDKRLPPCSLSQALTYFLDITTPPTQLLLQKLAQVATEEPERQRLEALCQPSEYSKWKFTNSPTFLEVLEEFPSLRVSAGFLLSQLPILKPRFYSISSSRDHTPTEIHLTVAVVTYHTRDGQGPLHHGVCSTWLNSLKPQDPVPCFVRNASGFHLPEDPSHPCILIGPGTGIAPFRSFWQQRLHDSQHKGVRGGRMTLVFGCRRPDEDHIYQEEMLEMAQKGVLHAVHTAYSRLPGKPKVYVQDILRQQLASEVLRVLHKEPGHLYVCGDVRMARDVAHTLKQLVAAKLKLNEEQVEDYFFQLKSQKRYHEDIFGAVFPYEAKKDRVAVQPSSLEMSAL
Assay: Inhibition of human iNOS expressed in HEK293 cells assessed as NO production by transient transfection assay
property_name: EC50 (nM)

Cc1ncsc1C(=O)N(Cc1cc(=O)[nH]c2ccccc12)c1ccccc1: 500
Cc1ncsc1C(=O)N(Cc1cc(=O)[nH]c2ccc(F)cc12)c1cccc(Cl)c1: 300
Cc1ncsc1C(=O)N(Cc1cc(=O)[nH]c2c(Cl)cccc12)c1cccc(Cl)c1: 1300
Cc1cccnc1C(=O)N(Cc1cc(=O)[nH]c2c(F)cccc12)c1cccc(Cl)c1: 420
Cc1ncsc1C(=O)N(Cc1cc(=O)[nH]c2cccc(F)c12)c1cccc(Cl)c1: 500
COc1cccc(N(Cc2cc(=O)[nH]c3c(F)cccc23)C(=O)c2scnc2C)c1: 990
Cc1cnccc1C(=O)N(Cc1cc(=O)[nH]c2c(F)cccc12)c1cccc(Cl)c1: 89
Cc1ncsc1C(=O)N(Cc1cncc2c(F)c(F)ccc12)c1cccc(Cl)c1: 200
Cc1noc(C)c1C(=O)N(Cc1cc(=O)[nH]c2c(F)cccc12)c1cccc(Cl)c1: 16
Cc1ncsc1C(=O)N(Cc1cc(=O)[nH]c2c(F)cccc12)c1cccc(F)c1: 62
Cc1ncsc1C(=O)N(Cc1cc(=O)[nH]c2ccccc12)c1cccc(Cl)c1: 170
Cc1ncsc1C(=O)N(Cc1cc(=O)oc2c(F)cccc12)c1cccc(Cl)c1: 2000
Cc1ncsc1C(=O)N(Cc1cc(=O)[nH]c2c1CCCC2)c1cccc(Cl)c1: 1140
CC(C)C(=O)N(Cc1cc(=O)[nH]c2c(F)cccc12)c1cccc(Cl)c1: 160
O=C(c1cncs1)N(Cc1cc(=O)[nH]c2c(F)cccc12)c1cccc(Cl)c1: 53
Cc1ncsc1C(=O)N(Cc1cc(=O)oc2c(F)c(F)ccc12)c1cccc(Cl)c1: 840
Cn1cncc1C(=O)N(Cc1cc(=O)[nH]c2c(F)c(F)ccc12)c1cccc(Cl)c1: 3
O=C(C1CCCC1)N(Cc1cc(=O)[nH]c2c(F)cccc12)c1cccc(Cl)c1: 770
Cc1ncccc1C(=O)N(Cc1cc(=O)[nH]c2c(F)cccc12)c1cccc(Cl)c1: 350
Cc1ncsc1C(=O)N(Cc1cc(=O)[nH]c2cc(F)ccc12)c1cccc(Cl)c1: 53
Cc1ncsc1C(=O)N(Cc1cncc2c(F)cccc12)c1cccc(Cl)c1: 760
Cc1ncsc1C(=O)N(Cc1cc(=O)[nH]c2c(F)cccc12)c1ccccc1: 200
Cc1ncsc1C(=O)N(Cc1c(F)c(=O)[nH]c2c(F)cccc12)c1cccc(Cl)c1: 26
